# system-under-test: human muscarinic M1 receptor (Homo sapiens, UniProt P11229)
# Sequence (P11229 whole entry): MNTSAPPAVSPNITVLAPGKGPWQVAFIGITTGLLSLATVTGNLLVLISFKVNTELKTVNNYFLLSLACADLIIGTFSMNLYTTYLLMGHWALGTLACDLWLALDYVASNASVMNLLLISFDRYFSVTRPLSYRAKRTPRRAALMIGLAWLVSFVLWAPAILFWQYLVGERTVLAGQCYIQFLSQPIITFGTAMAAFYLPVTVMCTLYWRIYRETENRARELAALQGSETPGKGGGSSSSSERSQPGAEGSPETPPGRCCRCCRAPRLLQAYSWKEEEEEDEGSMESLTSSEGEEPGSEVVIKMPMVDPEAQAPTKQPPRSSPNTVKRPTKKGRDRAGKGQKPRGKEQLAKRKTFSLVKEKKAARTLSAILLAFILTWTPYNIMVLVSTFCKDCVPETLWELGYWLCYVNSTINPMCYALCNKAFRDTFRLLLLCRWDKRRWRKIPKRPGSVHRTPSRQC
# assay-info: Alphascreen Surefire phospho-ERK1/2 functional assay, M1
# Type: cell-based
# setup-conditions: CHO cells stably expressing human M1; phospho-ERK1/2; * = variable results; read-out: pEC50 M1 (converted)
Kindly apply the following: YES if EC50 is less than 200 nM, NO in every other case.

CCOC(=O)N1CCC2(CC(N3CCC(N4CCCC4=O)CC3)C2)C1 (single isomer, unassigned) [2-111 Isomer 2] ... NO
CCOC(=O)N1CCC2(CC(N3CCC(N4CC(F)(F)C[C@@H]4C(=O)NOC)CC3)C2)C1 (single isomer, unassigned) [2-91 Isomer 2] ... NO
[2H]C([2H])([2H])COC(=O)N1CCC2(CC(N3CCC(c4ccnn4C)CC3)C2)C1 (single isomer, unassigned) [1-72 Isomer 2] ... NO

Query :: Is the reported EC50 for CCOC(=O)N1CCC2(CC(N3CCC(N4CCOCC4)CC3)C2)C1 (single isomer, unassigned) [4-11 Isomer 2] strictly below 200 nM?
Result :: NO

Query :: Is the reported EC50 for CCOC(=O)N1CCC2(CC(N3CCC([C@@H]4CCCN4C(=S)CC)CC3)C2)C1 (single isomer, unassigned) [2-58 Isomer 2] strictly below 200 nM?
Result :: NO

FYI, the data here is from patent US9926297B2.
